tested on: Sprague-Dawley rats; assay: Morphine antagonism, tail flick test; format: in vivo, rat; conditions: Reversal of morphine analgesia, 100 μg peptide given I.P. 30 min before 5 mg/kg morphine; 55° C. water bath, 15 s cut-off; water vehicle control 48.9
Positions of bridges follow the written chain, without caps; N, C: chain ends. Non-standard residues stand in square brackets, D forms with d. Residues, ends and D or L forms follow the SMILES beside them.
Criterion: Percent Analgesia Tail Flick meeting or surpassing 7%. Met: YES. Not met: NO.

Worked examples follow.
Check this compound for Percent Analgesia Tail Flick at or above 7%: NCCCC[C@H]1NC(=O)[C@H](Cc2ccccc2)NC(=O)[C@H](Cc2c[nH]cn2)NC(=O)[C@H](CCC(=O)O)NC(=O)[C@@H](N)CSSC[C@@H](C(=O)O)NC(=O)[C@H](Cc2ccccc2)NC1=O (H-CEHF[dK]FC-OH; disulfide 1-7)
YES

Check this compound for Percent Analgesia Tail Flick at or above 7%: N=C(N)NCCC[C@H]1NC(=O)[C@H](Cc2ccccc2)NC(=O)[C@H](Cc2c[nH]cn2)NC(=O)[C@H](CCC(=O)O)NC(=O)[C@@H](N)CSSC[C@H](C(=O)O)NC(=O)[C@H](Cc2ccccc2)NC1=O (H-CEHF[dR]F[dC]-OH; disulfide 1-7)
YES

Others:
Check this compound for Percent Analgesia Tail Flick at or above 7%: NCCCC[C@H]1NC(=O)[C@H](Cc2ccccc2)NC(=O)[C@H](Cc2c[nH]cn2)NC(=O)[C@H](CCC(=O)O)NC(=O)[C@@H](N)CSSC[C@@H](C(=O)O)NC(=O)[C@H](Cc2c[nH]c3ccccc23)NC1=O (H-CEHF[dK]WC-OH; disulfide 1-7)
NO

Check this compound for Percent Analgesia Tail Flick at or above 7%: NCCCC[C@H]1NC(=O)[C@H](Cc2ccccc2)NC(=O)[C@H](Cc2c[nH]cn2)NC(=O)[C@H](CCC(=O)O)NC(=O)[C@@H](N)CSSC[C@H](C(=O)O)NC(=O)[C@H](Cc2ccccc2)NC1=O (H-CEHF[dK]F[dC]-OH; disulfide 1-7)
YES

Check this compound for Percent Analgesia Tail Flick at or above 7%: N=C(N)NCCC[C@H]1NC(=O)[C@H](Cc2ccccc2)NC(=O)[C@H](Cc2c[nH]cn2)NC(=O)[C@H](CCC(=O)O)NC(=O)[C@@H](N)CSSC[C@@H](C(=O)O)NC(=O)[C@H](Cc2c[nH]c3ccccc23)NC1=O
NO

Hello, the source for this data is patent US4649191A, in case you need it.
